assayComment: In vivo pharmacokinetic test, drug concentration in blood plasma by LC-MS/MS
Set-up: species or system SD rats
details: male, SD, rat, plasma, po, 10 mg/kg, male SD rats, single oral 10 mg/kg, animal 201M; read-out: AUCINF—pred
propertyMeasured: AUC(0-inf) (ng·h/mL)

| compound | propertyMeasured | valueUnits | numericValue |
| --- | --- | --- | --- |
| CCOc1cccc(Nc2nn(C)c3c2Cc2cc(OCC)c(OCC(N)=O)cc2-3)c1 [LL-01] | AUC(0-inf) | ng·h/mL | 10900 |

----------
assayComment: MDCK cell permeability test
details: dog, MDCK, Recovery rate B→A, 90 min; 2nd line of the compound (condition not given)

| compound | recovery at 90 min |
| --- | --- |
| CCOc1cccc(Nc2nn(C)c3c2Cc2cc(OCC)c(OCC(N)=O)cc2-3)c1 | 85.4% |
| CCOc1cccc(Nc2nn(C)c3c2Cc2cc(OCC)c(OCC(=O)NO)cc2-3)c1 | 79.4% |
| CC(C)CN(C[C@@H](O)[C@H](Cc1ccccc1)NC(=O)O[C@H]1CCOC1)S(=O)(=O)c1ccc(N)cc1 [Amprenavir, amprenavir, reference compound] | 100% |

----------
assayComment: In vivo pharmacokinetic test, drug concentration in blood plasma by LC-MS/MS
Design: species or system SD rats
details: male, SD, rat, plasma, po, 10 mg/kg, SD rats, oral 10 mg/kg, 4 h, Mean

| structureString | concentration at 4 h [ng/mL] |
| --- | --- |
| CCOc1cccc(Nc2nn(C)c3c2Cc2cc(OCC)c(OCC(N)=O)cc2-3)c1 | 1280 |

----------
assayComment: In vivo pharmacokinetic test, drug concentration in blood plasma by LC-MS/MS
Set-up: species or system SD rats
details: male, SD, rat, plasma, iv, 1 mg/kg, SD rats, intravenous 1 mg/kg, 2 h, Mean

| structureString | concentration at 2 h [ng/mL] |
| --- | --- |
| CCOc1cccc(Nc2nn(C)c3c2Cc2cc(OCC)c(OCC(N)=O)cc2-3)c1 | 428 |

----------
assayComment: In vivo pharmacokinetic test, drug concentration in blood plasma by LC-MS/MS
Design: species or system SD rats
details: male, SD, rat, plasma, po, 10 mg/kg, SD rats, oral 10 mg/kg, 4 h, animal 203M
Description: 2. Test animal: SD rats, which are 284-304 g before the test, and bought from Shanghai Xipuer-Bikai laboratory animal Co., Ltd. with production license No. SCXK (Hu) 2013-0016, and laboratory animal certificate Nos. 2008001658223 and 2008001658296. […] The content of compound LL-01 in SD rat blood plasma is detected by use of LC-MS/MS method. […]
propertyMeasured: concentration at 4 h (ng/mL)

| structureString | propertyMeasured | valueUnits | numericValue |
| --- | --- | --- | --- |
| CCOc1cccc(Nc2nn(C)c3c2Cc2cc(OCC)c(OCC(N)=O)cc2-3)c1 | concentration at 4 h | ng/mL | 814 |

----------
assayComment: In vivo pharmacokinetic test, drug concentration in blood plasma by LC-MS/MS
Parameters: species or system SD rats
details: male, SD, rat, plasma, po, 10 mg/kg, male SD rats, single oral 10 mg/kg, Mean
propertyMeasured: AUC(0-t) (ng·h/mL)

| structureString | numericValue |
| --- | --- |
| CCOc1cccc(Nc2nn(C)c3c2Cc2cc(OCC)c(OCC(N)=O)cc2-3)c1 | 12400 |
